Overview of reported TGI across a group of compounds:
Test system: T-47D breast
Test: NCI tumour cell line growth inhibition, 48 h

| compound | TGI |
| --- | --- |
| CC[C@H](C)[C@H](NC(=O)C12C3C4C1C1C2C3C41NC)C(=O)N(C)[C@H](C[C@@H](OC(C)=O)c1nc(C(=O)N[C@@H](Cc2ccccc2)C[C@H](C)C(=O)OC)cs1)C(C)C (stereo partly specified) | > 14.3 µM |
| O=c1cc(NNc2cccc3ccccc23)[nH]c(=O)[nH]1 | 29.6 µM |
| CC(C)(Oc1ccc(-c2cccc3ccccc23)cc1)C(=O)O | > 100 µM |
| Cc1ccc(S(=O)(=O)N/N=C2\C=CC3(CC2)C(=O)N(I)c2ccccc23)cc1 (stereo unspecified) | > 100 µM |
| Cc1ccc(C2=CC(=O)/C(=C\C(=O)c3ccc(Br)cc3)O2)c(C)c1 | 43.1 µM |
| C[N+](C)(CCNc1ccc(NCC[N+](C)(C)Cc2ccc([N+](=O)[O-])cc2)c2c1C(=O)c1c(O)ccc(O)c1C2=O)Cc1ccc([N+](=O)[O-])cc1 | > 50 µM |
| CCOC(=O)[C@@]12C[C@](/C=C/OC)(O[Si](C)(C)C)[C@@]13c1cc(OC)c(OC)cc1CCN3C(=O)C2=O | > 100 µM |
| CC(=O)OC1CCn2c1nc1cc([N+](=O)[O-])c(C)cc12 (stereo unspecified) | > 100 µM |
| CC(=O)c1cc2c(N)c(C(=O)Nc3cccc4ccccc34)sc2nc1C | > 50 µM |
| O=C(/C=C/c1ccc(-c2ccccc2)cc1)NCc1ccc(C(=O)NCCc2ccccc2)cc1 | > 100 µM |
| CCCC(=O)Nc1cc(C(=O)N2C[C@H]3C[C@@]34C2=CC(=O)c2[nH]cc(C)c24)n(COC)c1 | 1.49 µM |
| NCCCN(CCCCN(CCCN)CCCc1ccccc1)CCCc1ccccc1 | 23.5 µM |
| O=C(Nc1ccn(C2CC(O)C(COC(c3ccccc3)(c3ccccc3)c3ccccc3)O2)c(=O)n1)c1ccccc1 (stereo unspecified) | 16.7 µM |
| OCCc1ccsc1-c1sc(-c2cc(CCO)c(-c3sc(-c4cc(CCO)c(-c5sccc5CCO)s4)cc3CCO)s2)cc1CCO | 3.56 µM |
| C[N+]1(C)CCCC(C#N)(c2ccccc2)CC1 (stereo unspecified) | > 100 µM |
| COc1cc(C2CC(c3ccccc3)=NN2C=O)ccc1Oc1ccnc2cc(Cl)ccc12 (stereo unspecified) | 39.7 µM |
| COc1ccc2nc3ccccc3c(NCCNCCO)c2c1 | 6.71 µM |
| Cc1cc(NC(=O)NCc2ccc(N3C(N)=NC(N)=NC3(C)C)cc2)ccc1S(=O)(=O)F | > 100 µM |
| Clc1cc(N/N=C(\c2ccccc2)c2ccccn2)ncn1 | 45.2 µM |
| C=C1C(=O)OC2CC(C)C(/C=C/C(C)=O)=CCC12 (stereo unspecified) | > 100 µM |
| OCCCN=C1CCCCC1 | > 100 µM |
| Cc1ccc(/C=c2\cc3oc(=O)c4cccc(c4-3)c2=O)cc1 | > 100 µM |
| NC(=NCCCCCCN=C(N)/N=C(\N)Nc1ccc(Cl)cc1)/N=C(\N)Nc1ccc(Cl)cc1 | 7.72 µM |
| CC(=O)N[C@@H](Cc1ccc(O)cn1)C(=O)NCc1ccc(Cl)cc1 | > 100 µM |
| CCn1cc(C(=O)O)c(=O)c2cc(F)c(N3CCN(S(=O)(=O)c4ccc(Cl)cc4Cl)CC3)cc21 | 9.71 µM |
| COc1cccc(/C=C2\N=C(c3ccccc3)OC2=O)c1 | > 100 µM |
| COC1C(OC(=O)c2ccc(C)[nH]2)C(O)C(Oc2ccc3c(O)c(NC(=O)c4ccc(O)c(CC=C(C)C)c4)c(=O)oc3c2Cl)OC1(C)C (stereo unspecified) | 36.5 µM |
| CO[C@@]12C[C@H](CNC(=O)c3ccc[nH]3)O[C@@H]1NC(=O)N2 | > 100 µM |
| CCCCCCCCCCCCCCCCCc1nc(Cl)nc(Cl)c1Cl | > 100 µM |
| CSc1c(C(C)=O)c(O)n(-c2ccc(C)cc2)c(=O)c1C#N | > 100 µM |
| C=CCC(N[C@@H](CO)c1ccccc1)c1ccc2ccccc2n1 (stereo partly specified) | > 100 µM |
| COc1cccc(NC(=O)CC(=O)NN)c1 | > 100 µM |
| O=C(/C=C/c1ccc(OCc2ccccc2)cc1)NCc1ccc(C(=O)NCCc2ccccc2)cc1 | > 100 µM |
| CN(C)C(=O)C(F)(F)C(c1ccccc1Br)C1C(=O)N(C)C(=O)N(C)C1=O (stereo unspecified) | > 100 µM |
| COc1ccc(-c2nsc3c2NC(=O)CC3c2ccsc2)cc1 (stereo unspecified) | 65.6 µM |
| CCN(CC)CCOC(COc1cc(C)cc(C)c1)COc1cc(C)cc(C)c1 | 6.83 µM |
